- Tested on: UO-31
- assay-remarks: NCI tumour cell line growth inhibition, 48 h
The source made the active and inactive calls. Cut-off read from the data, not from the text of the source: active = GI50 up to about 1.1 µM and inactive = higher.
Give your call using only these classes: TRUE for active, FALSE for inactive

Answered examples (6):
Ask: What outcome does the record of this test show for c1ccc(CNC2CC(NCc3ccccn3)CC(NCc3ccccn3)C2)nc1 (stereo not given) ?
Reply: FALSE

Ask: Which outcome was assigned to O=C(C=P(c1ccccc1)(c1ccccc1)c1ccccc1)c1ccc(-c2cccc([N+](=O)[O-])c2)s1 in this test?
Reply: FALSE

Ask: Could you kindly confirm the outcome this assay logged for COC1=CC(=O)c2c(CCNC(=O)OCc3ccccc3)n[nH]c2C1=O ?
Reply: FALSE

Ask: So what was the verdict on CN(C)Cc1cc(C(=O)/C=C/c2ccc(Br)cc2)cc(CN(C)C)c1O in this test?
Reply: FALSE

Ask: Write down the call the test reported for this compound. Item: COc1cc(-c2nc(N)c(C#N)c3c2CCS(=O)(=O)c2ccc(C)cc2-3)cc(OC)c1OC
Reply: FALSE

Ask: Just curious, what result did COc1cc(/C=C\c2ccc(Cl)cc2)cc(OC)c1OC get here?
Reply: TRUE

Further cases:
Ask: Status in this test for CC1=CCC([C@@](C)(O)CCCC(C)(C)N=C=S)CC1 (stereo not given in full) ?
Reply: FALSE

Ask: Field: outcome | Entry: O=C(Cc1nc2c3c(ccc2nc1O)C(=O)c1ccccc1C3=O)C(=O)Nc1ccccc1[N+](=O)[O-]
Reply: FALSE

Ask: # outcome recorded in this test, key = Cc1ccc(NC(=O)c2cc(S(=O)(=O)Nc3nc4cccnc4[nH]3)c(SSc3cc(Cl)c(C(=O)Nc4ccc(C)cc4)cc3S(=O)(=O)Nc3nc4cccnc4[nH]3)cc2Cl)cc1
Reply: FALSE

Ask: Tell me the recorded outcome of this test for CC1=C(/C=C/C(=O)O)C(C)(C)CCC1 .
Reply: FALSE

Ask: Query: recorded result category for O=P1(N(CCCl)CCCl)Oc2ccc(Cl)cc2Sc2c(ccc(Cl)c2Cl)O1 (stereo not given) in this test
Reply: FALSE

====

- System: U-251
- assay-remarks: NCI tumour cell line growth inhibition, 48 h
The source made the active and inactive calls. Rule as the data show it: active = GI50 up to about 1.1 µM and inactive = higher.
Pick from True for active, False for inactive when you respond.

Ask: Entry CCOP(=O)(/C=C/n1cc(C)c(=O)[nH]c1=O)OCC : call = ?
Reply: False

Others:
Ask: Returns: the outcome recorded for O/N=C1\CC2(N3CCOCC3)CCC1(Cc1ccccc1)CC2 in this assay.
Reply: False

Ask: Hey, what did the test say about CC(=O)OCCCCN1C(=O)CSc2ccccc21 ?
Reply: False

Ask: Field: outcome | Entry: O=C(CC1(O)C(=O)Nc2c(Cl)cc(Cl)cc21)c1cccc([N+](=O)[O-])c1 (stereo not given)
Reply: False

Ask: Please state the recorded outcome for this compound: CC1=C(C(=O)NNC(=O)CC#N)CC(C(=O)NNC(=O)CC#N)=C(C)N1
Reply: False

Ask: In this assay, the call recorded for O=c1oc2c(O)c(O)cc3c(=O)oc4c(O)c(O)cc1c4c23 was what?
Reply: False

Ask: How did this test come out for O=C(c1ccccc1)C1N=NCC1c1ccc([N+](=O)[O-])cc1 (stereo not given) ?
Reply: False

Ask: What is the recorded call for this compound in the test? O=C1CC(NCCCNC2CC(=O)c3c(Br)sc(Br)c32)c2c(Br)sc(Br)c21 (stereo not given)
Reply: False

Ask: What did this assay record as the result for NC(=O)c1cc2ccc(O)cc2o/c1=N/c1ccccc1 ?
Reply: False

Ask: Dear all, I need the recorded test outcome for COP(=O)(OC)C(NC=O)P(=O)(OC)OC , thank you.
Reply: False

Ask: Write down the call the test reported for this compound. Item: CN(C)/C=[N+]1/[C@@H](Cc2ccccc2)C(=O)O[B-]1(F)c1ccccc1 (stereo not given in full)
Reply: False

Ask: Assay result, entry CCOc1ccc(/N=N/C2C(=O)N(C(=O)CC(=O)Nc3ccccc3OC)N=C2C)cc1 (stereo not given) — outcome?
Reply: False

Ask: Hi team, can someone confirm the assay call for Cc1c(-c2ccccc2)c(C#N)c2nnn(-c3ccc([N+](=O)[O-])cc3)c(=O)n12 ?
Reply: False

Ask: # outcome recorded in this test, key = O=C(c1ccccc1)c1ccc(N2C(=O)/C(=C/c3cccc([N+](=O)[O-])c3)N=C2c2ccccc2)c(N2C(=O)/C(=C/c3cccc([N+](=O)[O-])c3)N=C2c2ccccc2)c1
Reply: False

Ask: Hi team, can someone confirm the assay call for O=c1[nH]c2cc([N+](=O)[O-])ccc2nc1/C(=N\NO)C(O)c1ccc([N+](=O)[O-])cc1 (stereo not given) ?
Reply: False

Ask: # lookup: test call for Cc1ccnc(NS(=O)(=O)c2ccc(NC(=O)c3ccc4nc5ccccc5c(Nc5ccc(S(=O)(=O)Nc6nccc(C)n6)cc5)c4c3)cc2)n1
Reply: False

====

Reported GI50 values for a set of compounds
- Test system: ACHN
- assay-remarks: NCI tumour cell line growth inhibition, 48 h
Activity calls are given as the source filed them. Cut-off read from the data, not from the text of the source: active = GI50 up to about 1.1 µM and inactive = higher.

Recorded GI50, per entry:
In plain terms, NS(=O)(=O)c1nnc(NC(=O)Nc2ccc(Cl)c(Cl)c2)s1 has a documented GI50 of 34.2 µM (inactive)

Measured GI50, O=C(/C=C/c1ccc(-c2ccccc2[N+](=O)[O-])o1)NCc1ccc(C(=O)NCCc2ccccc2)cc1 : > 100 µM (inactive)

Entry Cc1nn(-c2ccccc2)c(C)c1/C=N/NC(=O)c1sc(=S)n(-c2ccc(Cl)cc2)c1N — recorded GI50 = 4.18 µM (inactive)

Form field GI50, entry NC(=O)c1cc2ccc(O)cc2o/c1=N/c1ccccc1 : 24.9 µM (inactive)

Consider the additional compound presented here.
Measured GI50, O=C(O)c1cc(C(=O)O)cc(N2C(=O)c3ccccc3C2=O)c1 : > 100 µM (inactive)

====

- Tested on: COLO 205
- assay-remarks: NCI tumour cell line growth inhibition, 48 h
Active and inactive are the calls of the source. Rule as the data show it: active = GI50 up to about 1.1 µM and inactive = higher.
Consider the following compounds and their measured GI50 readings.

Look over these answered cases.
The reported GI50 of the compound O=[N+]([O-])c1ccc(CSc2nncc3[nH]cnc23)cc1 was > 100 µM (inactive)

Quick note, GI50 for CCn1nc(C)c2c1C(=O)NC(C)C(=O)N2 (stereo unspecified) landed at > 100 µM (inactive)

Data point: Cc1c(Cl)c2ccccc2n1S(=O)(=O)c1ccccc1 ; GI50 = > 100 µM (inactive)

Entry CC(Nc1ccc(S(=O)(=O)NC(=N)N)cc1)c1c2ccccc2nc2ccccc12 (stereo unspecified) — recorded GI50 = 57.7 µM (inactive)

Note to self: GI50 recorded for O=c1c(-c2ccccc2)nnc2n(Cc3ccccc3)c3ccccc3n12 was > 100 µM (inactive)

Proceed to the following item.
GI50 reported for this compound COc1cc(OC)cc(-n2c(N)c(C#N)c3ccc([N+](=O)[O-])cc3c2=O)c1 : > 100 µM (inactive)

====

- Test system: NCI-H460
- assay-remarks: NCI tumour cell line growth inhibition, 48 h
Calls of active or inactive are those of the source. Rule as the data show it: active = GI50 up to about 1.1 µM and inactive = higher.
measure-name: GI50

For orientation, consider the following solved cases.
Reported GI50 for Cc1nc(-n2nc(-c3ccccc3)cc2-c2ccccc2)sc1C(=O)/C=C/c1ccc([N+](=O)[O-])cc1 was 25.2 µM (inactive)

Recorded GI50 (compound Cc1nc2ccc(Br)cc2c(=O)n1-c1ccc(N)cc1 ): > 100 µM (inactive)

Notebook: NC(=O)c1cc2ccc(O)cc2o/c1=N/c1ccccc1 , GI50 read as 25.9 µM (inactive)

Sure, the documented GI50 for O=S(=O)(c1cc(Cl)ccc1Cl)n1ccnc1 is 25.9 µM (inactive)

So, CC12CC3CC/C(=N\O)C(C1)C3(N1CCOCC1)C/C2=N/O (stereo not given) ? Its GI50 was > 100 µM (inactive)

Form field GI50, entry CC(C(=O)c1ccc(Cl)cc1)C1OC(=O)C(Cl)=C1Cl (stereo not given) : > 100 µM (inactive)

// sample O=C(CC(=O)N1N=C(N(c2ccccc2)c2ccccc2)CC1c1ccccc1)Nc1ccc(Cl)cc1 (stereo not given) , its GI50 was > 100 µM (inactive)

Entry O=C/C(=C(/Br)I)c1ccccc1 , GI50 reported as 8.99 µM (inactive)

More entries:
Measured GI50, O=C1OC[C@@H]2Cc3cc4c(cc3[C@H](c3ccc5c(c3)OCO5)[C@@H]12)OCO4 : > 25 µM (inactive)

Lookup result for O=[N+]([O-])c1cc2ccc1OCc1cccc(n1)COc1ccc(cc1[N+](=O)[O-])/C=N\CCCCCCCC/N=C\2 ; measured GI50: > 100 µM (inactive)

====

- System: HCT-116
- assay-remarks: NCI tumour cell line growth inhibition, 48 h
Activity calls are given as the source filed them. Cut-off read from the data, not from the text of the source: active = GI50 up to about 1.1 µM and inactive = higher.
Listing: GI50 of selected molecules

Use these answered entries as a reference point.
// field: GI50; key: O=C(O)CCSC(=O)Nc1ccccc1F ; value = > 100 µM (inactive)

Input N=c1oc2ccc(Cl)cc2cc1C(=O)Nc1ccccc1 . Output GI50: > 59 µM (inactive)

Item: CN1c2ccccc2C(=O)NC12CCNCC2 | GI50: > 100 µM (inactive)

# molecule CCOC(=O)C(c1c[nH]c2ccccc12)(c1c[nH]c2ccccc12)c1c[nH]c2ccccc12 ; its GI50 = 29.2 µM (inactive)

Lookup result for CCCC(=O)OC[n+]1cccc(-c2c(COC(=O)NC(C)C)c(COC(=O)NC(C)C)c3n2CCC3)c1 ; measured GI50: 19.7 µM (inactive)

What the record says about O=CN1CCN(C(=O)c2ccc(Cl)c(Cl)c2)C1=S : GI50 is 16.3 µM (inactive)

Continuing:
# molecule N#C/C(=C\c1c(O)cc(O)cc1O)C(N)=O ; its GI50 = > 100 µM (inactive)
